System: MS2 coat protein
test: apparent KD of MS2 coat protein; designed switch direction (-1 OFF switch, 1 ON switch): -1; higher = weaker reporter binding
condition.description: input ligand: microRNA oligo, concentration not stated
property.name: apparent KD of MS2 coat protein (nM)
One number for each entry, in nM.

Here is how some sequences turned out for apparent KD of MS2 coat protein.
{"sequence.content": "UACAUGAGGAUCACCCAUGUUUUGUCGUGUAUGGUAUUUAUCUAGGAUAUCAUUUAAUUUAGUUAUGAGAAGGAGAAUAUUAAU [JMF's solution 85] (Eterna round: R96, puzzle: Exclusion NG 3)", "property.name": "apparent KD of MS2 coat protein", "value.units": "nM", "recorded.result": 17}
{"sequence.content": "AGCGCCAUCGUGAGAUGGCGUAUUACAUGAGGAUCACCCAUGUAGGAUAUCGAUUGCUUUGCAGUCGAGAAGGGCAUGUUCUAG [JL ENG3 3.80 Mod G] (Eterna round: R96, puzzle: Exclusion NG 3)", "property.name": "apparent KD of MS2 coat protein", "value.units": "nM", "recorded.result": 35.8}

Pending sequence:
Quick note, apparent KD of MS2 coat protein for UUAUUAUAUGUAGGAUAUGCAUAUUGUUGUUAUGCAGAAGGACAUGAGGAUCACCCAUGUGUAUUAUUGUUAUAUAUUAUAUAU [Title] (Eterna round: R96, puzzle: Exclusion NG 1) landed at 16.5

* * *

Tested on: K4 kissing-loop RNA reporter;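 further: bound reporter read as fluorescence of individual clusters on recovered sequencing chips by microscopy, with normalized cluster intensities fitted with a binding model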
test: apparent KD of K4 kissing-loop reporter; higher = weaker reporter binding
condition.description: Eterna round: R107; input ligand: arginine 13.2 mM
Lab note: anything with apparent KD of K4 kissing-loop reporter at or over 100 nM counts as True; the rest go in False.

Use these answered entries as a reference point.
{"sequence.content": "ACGGUUUCCACGGCCGCCACUUGCGCAUUAGAUCUUACCCUAGGAGUGAUGUUCCAUACAAGUACAAGGACCGGGUGGGACAUAA [theeternabot_sameState_KL_Trp_B_28]", "class.label": "True"}
{"sequence.content": "CAUGAGUGAUGUUCGUGCGCUUGGUCGAAGCGAGGACCGGUACGGCCGCCACUCGCUAUGGCGGCAUCUACCAGUGAUGUUGGUG [Same State Tryptophan A GF 2]", "class.label": "True"}
{"sequence.content": "UGACUGGAUGGAAGGAGCGCUAAACUCCUAGUGAUGUUAGGGAUAUGAGGCAAAGCCUUGAAGCAGGUAGGUCGCCAUCUAGUCU [FiskerMod 26 - Jieux - Same State - Arginine B]", "class.label": "True"}
{"sequence.content": "UAGGGCAUCGCAGGAUAUCCUGCUUAACGUUGGAUUCCAGUGAUGUUGGAAAGUCGGCCUAGGGUAGGAGAAGGGCGAACUUGAA [Maxean]", "class.label": "True"}
{"sequence.content": "UGGAGUUGACGAAAAGUCAACUCCUGAGAUACCAGUGACGAAAGUCACCCUUGGCAGCUCACUGCCAGUGAUGUUGGUUCAUAAG [#03 K4 Theophylline A Same State]", "class.label": "True"}

Q. Given AAUAAUCUAGGUGAUACCAGCUCAACAUGAGUGAUGUUCAUGAACUAAUGUAGAGUUGAGAGCCCUUGGCAGCACCUAGAUAAUA [KL-SSTheoB6] , state whether its apparent KD of K4 kissing-loop reporter is at least 100 nM.
A. True

Q. Given UGAUCUGCAGUGAUGUUGCAGUAGCUGUCAGAGGAUAUCAGACUCAUGAGAAGGCUGACAAUGUCUAACAGCACAAUGCUGUUCA [FMN A SS t6] , state whether its apparent KD of K4 kissing-loop reporter is at least 100 nM.
A. True

Q. Given UGUCAUUGGUCGGCCGCCACUAGGACCGGGUAUAGCCUAGUGAUGUUAGUAAGUACGGCCGCCACUAGGACCGGGACCGAUGACU [KL-SSTryp-B21 #DoubleAptamer] , state whether its apparent KD of K4 kissing-loop reporter is at least 100 nM.
A. False

Q. Given ACAUAGGAUGGAAGGAGCGCUCGUCAGUCCUGCGAGUGAUGUUCGUGGGUAAAUAUUCGCGAGCAGGUAGGUCGCCAUCUUGAAA [Vedi] , state whether its apparent KD of K4 kissing-loop reporter is at least 100 nM.
A. True

Q. Given GCUAAGUGAUGUUUAUGCCGCCGACCGGAUACCAGCUACUAGGCAAGCCCUUGGCAGCCGCUAUGUGACCGAUCAUUAGUUAUGU [theeternabot_exclusion_KL_Theo_A_6] , state whether its apparent KD of K4 kissing-loop reporter is at least 100 nM.
A. True
